# assayed.target: Protein cereblon/Eukaryotic peptide chain release factor GTP-binding subunit ERF3A (Homo sapiens, UniProt Q96SW2+P15170)
# Sequence (P15170 whole entry, looked up): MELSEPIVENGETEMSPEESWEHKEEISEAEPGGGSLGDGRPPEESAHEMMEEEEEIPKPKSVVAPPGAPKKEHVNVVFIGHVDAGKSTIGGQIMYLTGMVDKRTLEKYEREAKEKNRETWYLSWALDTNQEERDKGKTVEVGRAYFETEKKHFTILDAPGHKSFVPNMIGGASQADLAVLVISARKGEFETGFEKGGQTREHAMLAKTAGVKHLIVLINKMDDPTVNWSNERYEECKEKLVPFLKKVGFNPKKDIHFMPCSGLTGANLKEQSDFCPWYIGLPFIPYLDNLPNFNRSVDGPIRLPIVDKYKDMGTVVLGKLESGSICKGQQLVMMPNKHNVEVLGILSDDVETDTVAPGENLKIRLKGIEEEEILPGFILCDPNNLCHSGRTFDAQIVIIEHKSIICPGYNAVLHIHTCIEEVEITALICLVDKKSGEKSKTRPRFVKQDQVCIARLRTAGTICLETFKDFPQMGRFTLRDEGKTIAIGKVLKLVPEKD
# Sequence (Q96SW2 whole entry, looked up): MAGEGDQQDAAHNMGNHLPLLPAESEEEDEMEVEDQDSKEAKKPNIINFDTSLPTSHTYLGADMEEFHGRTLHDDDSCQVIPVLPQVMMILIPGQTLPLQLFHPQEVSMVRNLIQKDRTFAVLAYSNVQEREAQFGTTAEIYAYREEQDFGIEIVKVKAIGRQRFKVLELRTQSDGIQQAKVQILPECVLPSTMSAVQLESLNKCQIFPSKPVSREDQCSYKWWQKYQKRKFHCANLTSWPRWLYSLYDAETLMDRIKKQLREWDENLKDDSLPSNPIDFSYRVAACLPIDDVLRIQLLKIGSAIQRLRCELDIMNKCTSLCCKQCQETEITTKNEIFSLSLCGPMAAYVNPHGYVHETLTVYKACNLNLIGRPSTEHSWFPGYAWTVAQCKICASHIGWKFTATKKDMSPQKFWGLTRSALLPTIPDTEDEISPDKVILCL
# test.method.notes: Molecular glue activity at CRBN/GSPT1 in human MV4-11 cells harboring GSPT1 G575N mutant assessed as induction of GSPT1 degradation at 3 uM measured after 3 hrs by immunoblot analysis
# Type: cell-based
Calls of active or inactive are those of the source. No cut-off for these calls is given here.
measurement.name: Activity

compound | result
CCC(C)(CCNS(=O)(=O)Nc1ccc2c(c1)CN(C1CCC(=O)NC1=O)C2=O)c1ccccc1OC (centres undefined) | inactive
CCCOc1ccccc1CNS(=O)(=O)Nc1ccc2c(c1)CN(C1CCC(=O)NC1=O)C2=O (centres undefined) | inactive
CC(C)CCOc1ccccc1OCCNS(=O)(=O)Nc1ccc2c(c1)CN(C1CCC(=O)NC1=O)C2=O (centres undefined) | inactive
Cc1cccc(Cl)c1OCCNS(=O)(=O)Nc1ccc2c(c1)CN(C1CCC(=O)NC1=O)C2=O (centres undefined) | inactive

Data provenance is ChEMBL document CHEMBL5550120.
